Assay: Glass transition temperature by DSC
Assay type: physicochemical
Settings: measured by DSC
readout_name: Tg (°C)
Kindly answer with a numeric value in °C, unit omitted.

| compound | unit_text | Tg |
| --- | --- | --- |
| O=C(O)CCCC(=O)O[C@@H]1CO[C@H]2[C@@H]1OC[C@H]2OC(=O)CCCC(=O)O | °C | −26 |

**Query** Recall and state the measured Tg for O=C(O)CCC(=O)O[C@@H]1CO[C@H]2[C@@H]1OC[C@H]2OC(=O)CCC(=O)O .
**Result** −2

**Query** Output measured Tg for this item: O=C(O)CCCC(=O)O[C@H]1CO[C@H]2[C@@H]1OC[C@H]2OC(=O)CCCC(=O)O
**Result** −24

**Query** Please give the documented Tg of O=C(O)C=CC(=O)O[C@H]1CO[C@H]2[C@@H]1OC[C@H]2OC(=O)C=CC(=O)O
**Result** 16

**Query** Return the recorded Tg value; entry: O=C(O)CCC(=O)OC1COC2C(OC(=O)CCC(=O)O)COC12 (centres unmarked)
**Result** −2
